Target: Complex I
Assay: Assay A: Determination of Complex I mediated ROS-inhibition (CI)
Settings: read-out: CI IC50; ROS generation by Complex I purified from bovine heart, Amplex Red/horse radish peroxidase readout, 8 point concentration-response
Attribute Measured: pIC50
In textbook form, pIC50 equals minus log to base ten of the concentration in mol/L.

Completed entries (count: 3):
- CC(C)N1CCC2(CC1)CN/C(=C1\C(=O)N(C(C)C)c3ccc(N4CCCC4)cc31)CO2 [Compound 91]: 6.62
- CC(C)Nc1ccc2c(c1)/C(=C1\COCC(C)N1)C(=O)N2C1CCOCC1 (centres unmarked) [Compound 33]: 7.49
- CC1CCC(C)N1c1ccc2c(c1)/C(=C1\COCCN1)C(=O)N2C1CCOCC1 (centres unmarked) [Compound 156]: 7.11

// query What pIC50 value was documented for this compound, CC1COC/C(=C2/C(=O)N(C3CCOCC3)c3ccc(N4C(C)CCC4C)cc32)N1 (centres unmarked) [Compound 93] ?
// result 7.62

---

Molecular target: Complex I
Experiment: Assay A: Determination of Complex I mediated ROS-inhibition (CI)
Assay type: biochemical
Conditions: read-out: CI IC50; ROS generation by Complex I purified from bovine heart, Amplex Red/horse radish peroxidase readout, 8 point concentration-response
Attribute Measured: pIC50
Recall that pIC50 is obtained by taking minus log10 of the concentration measured in molar.

* CC(Nc1ccc2c(c1)/C(=C1\COCCN1)C(=O)N2C(C)C)c1ccccn1 (stereo not shown) | 7.03
* CC(C)N1C(=O)/C(=C2/CCCCN2)c2cc(N(C3CCC3)C3CCC3)ccc21 | 6.97
* CC(=O)N1CC[C@H](N2C(=O)/C(=C3/COCCN3)c3cc(NC(C)C)ccc32)C1 | 7.64

// query // pIC50 lookup, key: O=C1/C(=C2/COCCCN2)c2cc(NC3CCOC3)ccc2N1C1CCOCC1 (stereo not shown)
// result 6.98

---

Molecular target: Complex I
Assay: Assay A: Determination of Complex I mediated ROS-inhibition (CI)
Settings: read-out: CI IC50; ROS generation by Complex I purified from bovine heart, Amplex Red/horse radish peroxidase readout, 8 point concentration-response
Attribute Measured: pIC50
Notebook: values listed as pIC50 are -log10 of the concentration (mol/L).

Examples with answers:
* CC(C)N1C(=O)/C(=C2/COCCN2)c2cc(NCC3CC3)ccc21 [Compound 58] | 7.00
* CC(Nc1ccc2c(c1)/C(=C1\COCCN1)C(=O)N2C(C)C)c1cncnc1 (centres unmarked) [Compound 126] | 7.07
* CN(C)c1ccc2c(c1)/C(=C1\COCCN1)C(=O)N2C [Compound 2] | 7.10
* CC(Nc1ccc2c(c1)/C(=C1\COCCN1)C(=O)N2C(C)C)C1CCC1 (centres unmarked) [Compound 37] | 6.39

// query Recorded pIC50 of CC(C)N1CCN/C(=C2\C(=O)N(C)c3ccc(N4CCCC4)cc32)CC1 [Compound 110] , please.
// result 6.58

---

Molecular target: Complex I
Assay: Assay A: Determination of Complex I mediated ROS-inhibition (CI)
Details: read-out: CI IC50; ROS generation by Complex I purified from bovine heart, Amplex Red/horse radish peroxidase readout, 8 point concentration-response
Attribute Measured: pIC50
Note: pIC50 values are expressed as the negative base-10 logarithm of concentration in M.

Here is how some compounds turned out for pIC50.
- O=C1/C(=C2/COCCN2)c2cc(NC3CCC3)ccc2N1C1COC1: 6.87
- CC(=O)N1CCC(Nc2ccc3c(c2)/C(=C2\COCCN2)C(=O)N3C(C)C)CC1: 7.11

// query I would be grateful if you could share the reported pIC50 for CC(C)Nc1ccc2c(c1)/C(=C1\CN(C(C)C)CCN1)C(=O)N2C1CCOCC1 .
// result 7.07

// query Check O=C1/C(=C2/CCOCCN2)c2cc(NC3CCCC3)ccc2N1C1CCOCC1 too.
// result 7.08

---

Molecular target: Complex I
Experiment: Assay A: Determination of Complex I mediated ROS-inhibition (CI)
Conditions: read-out: CI IC50; ROS generation by Complex I purified from bovine heart, Amplex Red/horse radish peroxidase readout, 8 point concentration-response
Attribute Measured: IC50 (nM)
State the answer as a number, implicitly in nM.

Some compounds with recorded IC50:
- CN(C)c1ccc2c(c1)/C(=C1\CCCCCN1)C(=O)N2C [Compound 105]: 64
- CC(C)Nc1ccc2c(c1)/C(=C1\CN(C3COC3)CCN1)C(=O)N2C1CCOCC1 [Compound 5]: 81

// query Fill in: IC50 of CN1C(=O)/C(=C2/CCN(C3COC3)CCN2)c2cc(N3CCCC3)ccc21 [Compound 45] is ___
// result 259

// query Subsequent entry: CN1C(=O)/C(=C2/CCNCCN2)c2cc(N3CCCC3)ccc21 [Compound 40]
// result 166
